Test system: IL-2-FL/Gaussia Luciferase
experiment-notes: Dox Induced IL2-FL-Gluc Assay
Type: cell-based
stated-conditions: 24 hr doxycycline induction, 293FRT/TO cells, Gaussia luciferase signal; read-out: 24 hr Dox Inducible IL2FLGIuc 293FRT/TO: Mean IC50
experimental-endpoint: pIC50
pIC50 (log units): -log10 of the concentration in mol/L.

Worked set:
INSERT INTO measurements (compound, meas_value) VALUES
  ('O=C(Nc1nc(/C=C/C2CCCOC2)cs1)c1cccn1Cc1ccncc1 (stereo not drawn)', 5.27),
  ('CCC(C)c1csc(NC(=O)c2cccn2Cc2ccncc2)n1 (stereo not drawn)', 6.37);

Incoming: Which pIC50 value is on record for CC(C)OC(C)(C)c1csc(NC(=O)c2cccn2CCCc2ccccc2Cl)n1 ?
Outgoing: 5.56

###

Test system: HER3-ss+4aa/Gaussia Luciferase
experiment-notes: Dox-Induced Her3-ss-Gluc Assay
Type: cell-based
stated-conditions: 24 hr doxycycline induction, 293FRT/TO cells, Gaussia luciferase signal; read-out: 24 hr Dox Inducible Her3(ss + 4)Gluc 293FRT/TO: Mean IC50
experimental-endpoint: IC50 (nM)
Entry rule: numbers only, all in nM.

Worked set:
INSERT INTO assay_data (compound, experimental_endpoint, measure_unit, meas_value) VALUES
  ('O=C(Nc1nc(C2CCC(c3ccccc3)CC2)cs1)c1cccn1Cc1ccncc1 (centres unmarked)', 'IC50', 'nM', 250),
  ('O=C(Nc1nc(Cc2ccccc2)cs1)c1cccn1Cc1ccncc1NCc1ccccc1', 'IC50', 'nM', 4940),
  ('CN(C)C(=O)c1ccc(/C=C/c2csc(NC(=O)c3cccn3Cc3ccncc3)n2)cc1', 'IC50', 'nM', 21900),
  ('O=C(Nc1nc2c(s1)CCC2)c1cccn1Cc1ccncc1', 'IC50', 'nM', 5310),
  ('CC(OC(C)(C)c1csc(NC(=O)c2cccn2Cc2ccncc2)n1)c1ccccc1Cl (centres unmarked)', 'IC50', 'nM', 174),
  ('CCc1sc(NC(=O)c2cccn2Cc2ccncc2)nc1C', 'IC50', 'nM', 2210),
  ('O=C(Nc1nc([C@H]2C[C@@H]2c2ccccc2)cs1)c1cccn1Cc1ccncc1', 'IC50', 'nM', 600),
  ('CC(C)OC(C)(C)c1csc(NC(=O)c2cccn2Cc2ccncc2Cl)n1', 'IC50', 'nM', 1570);

Incoming: Which IC50 value is on record for CC(OC(C)(C)c1csc(NC(=O)c2cccn2Cc2ccncc2)n1)c1ccccc1 (centres unmarked) ?
Outgoing: 99

Incoming: Which IC50 value is on record for CC(C)OC(C)(C)c1csc(NC(=O)c2cccn2CCCc2ccncc2)n1 ?
Outgoing: 128

Incoming: Which IC50 value is on record for O=C(Nc1nc(/C=C/c2ccc(OC3CC3)cc2)cs1)c1cccn1Cc1ccncc1 ?
Outgoing: 152

Incoming: Which IC50 value is on record for Cc1ccc2nc(NC(=O)c3cccn3Cc3ccncc3)sc2c1 ?
Outgoing: 7280

Incoming: Which IC50 value is on record for CC(C)OC(C)(C)c1csc(NC(=O)c2cccn2CCOc2ccncc2)n1 ?
Outgoing: 426

Incoming: Which IC50 value is on record for CC(C)OC(C)(C)c1csc(NC(=O)c2cccn2Cc2ccncc2C(F)(F)F)n1 ?
Outgoing: 6700

Incoming: Which IC50 value is on record for O=C(Nc1nc(CCc2ccccc2)cs1)c1cccn1Cc1ccncc1 ?
Outgoing: 382

Incoming: Which IC50 value is on record for CC(OC(C)(C)c1csc(NC(=O)c2cccn2Cc2ccncc2)n1)c1cccc(Cl)c1 (centres unmarked) ?
Outgoing: 62

Incoming: Which IC50 value is on record for CC(C)OC(C)(C)c1csc(NC(=O)c2cccn2CC2CCOCC2)n1 ?
Outgoing: 5440

Incoming: Which IC50 value is on record for O=C(Nc1nc([C@@H]2CCC[C@@H](c3ccccc3)C2)cs1)c1cccn1Cc1ccncc1 ?
Outgoing: 912

Incoming: Which IC50 value is on record for O=C(Nc1nc(C2CC2)cs1)c1cccn1Cc1ccncc1 ?
Outgoing: 3420

Incoming: Which IC50 value is on record for O=C(Nc1nc(/C=C/Cc2ccccc2)cs1)c1cccn1Cc1ccncc1 ?
Outgoing: 315

Incoming: Which IC50 value is on record for O=C(Nc1nc([C@@H]2CCCN2c2ccccc2)cs1)c1cccn1Cc1ccncc1 ?
Outgoing: 859

Incoming: Which IC50 value is on record for O=C(Nc1nc2ccccc2s1)c1cccn1Cc1ccncc1 ?
Outgoing: 2930

Incoming: Which IC50 value is on record for O=C(Nc1ncc(Cc2ccccc2)s1)c1cccn1Cc1ccncc1 ?
Outgoing: 2420

Incoming: Which IC50 value is on record for Cc1cc(C(=O)Nc2nc(C(C)(C)OC(C)C)cs2)n(Cc2ccncc2)c1 ?
Outgoing: 2690

Incoming: Which IC50 value is on record for O=C(Nc1nc([C@H]2C[C@H]2c2ccccc2)cs1)c1cccn1Cc1ccncc1 ?
Outgoing: 332

Incoming: Which IC50 value is on record for CC(=O)Nc1ccc(/C=C/c2csc(NC(=O)c3cccn3Cc3ccncc3)n2)cc1 ?
Outgoing: 3120

Incoming: Which IC50 value is on record for CC(C)(COc1ccccn1)c1csc(NC(=O)c2cccn2Cc2ccncc2)n1 ?
Outgoing: 974

###

In this section, each of the molecules is paired with its reported pIC50.
Test system: IL-2-FL/Gaussia Luciferase
experiment-notes: Dox Induced IL2-FL-Gluc Assay
Assay type: cell-based
stated-conditions: 24 hr doxycycline induction, 293FRT/TO cells, Gaussia luciferase signal; read-out: 24 hr Dox Inducible IL2FLGIuc 293FRT/TO: Mean IC50
pIC50 (log units): -log10 of the concentration in mol/L.

Incoming: Which pIC50 value is on record for O=C(Nc1nc2ccccc2s1)c1cccn1Cc1ccncc1 ?
Outgoing: 5.84

Incoming: Which pIC50 value is on record for CO[C@H]1CC[C@H](/C=C/c2csc(NC(=O)c3cccn3Cc3ccncc3)n2)CC1 ?
Outgoing: 5.80

Incoming: Which pIC50 value is on record for O=C(Nc1nc([C@@H]2CCC[C@@H](c3ccccc3)C2)cs1)c1cccn1Cc1ccncc1 ?
Outgoing: 6.02

Incoming: Which pIC50 value is on record for Cc1cc(C(=O)Nc2nc(C(C)(C)OC(C)C)cs2)n(Cc2ccncc2)c1 ?
Outgoing: 5.65

Incoming: Which pIC50 value is on record for O=C(Nc1nc(C2CCc3ccccc3O2)cs1)c1cccn1Cc1ccncc1 (centres unmarked) ?
Outgoing: 5.41

Incoming: Which pIC50 value is on record for CC(C)OC(C)(C)c1csc(NC(=O)c2cccn2Cc2cc(F)nc(F)c2)n1 ?
Outgoing: 6.05

Incoming: Which pIC50 value is on record for COc1cccc(C#Cc2csc(NC(=O)c3cccn3Cc3ccncc3)n2)c1 ?
Outgoing: 5.98

Incoming: Which pIC50 value is on record for O=C(Nc1nc([C@@H]2CC[C@@H](c3ccccc3)C2)cs1)c1cccn1Cc1ccncc1 (stereo in doubt) ?
Outgoing: 6.08

Incoming: Which pIC50 value is on record for O=C(Nc1nc(/C=C/c2ccccc2Cl)cs1)c1cccn1Cc1ccncc1 ?
Outgoing: 5.97

Incoming: Which pIC50 value is on record for CC(C)(OCc1ccccc1)c1csc(NC(=O)c2cccn2Cc2ccncc2)n1 ?
Outgoing: 6.71

Incoming: Which pIC50 value is on record for CC1(C)CCc2sc(NC(=O)c3cccn3Cc3ccncc3)nc21 ?
Outgoing: 6.34

Incoming: Which pIC50 value is on record for O=C(Nc1nc(CCc2cccc(Cl)c2)cs1)c1cccn1Cc1ccncc1 ?
Outgoing: 5.93

###

Test system: HER3-ss+4aa/Gaussia Luciferase
experiment-notes: Dox-Induced Her3-ss-Gluc Assay
Type: cell-based
stated-conditions: 24 hr doxycycline induction, 293FRT/TO cells, Gaussia luciferase signal; read-out: 24 hr Dox Inducible Her3(ss + 4)Gluc 293FRT/TO: Mean IC50
Method: Transfected cells were selected for resistance to the selectable markers Hygromycin and Blasticidin to create a stable cell line that contained the HER3-ss+4aa/Gaussia Luciferase cDNA insert whose expression was regulated under the T-REx™ system. The day before assay, cells were trypsinized and plated in 384-well tissue culture plates. The next day, compound dilutions in DMSO/media containing doxycycline were added to the wells and incubated at 37° C., 5% CO2. […]
In this section, each of the molecules is paired with its reported log10 of IC50.
Values are log10 of IC50 in µM.

Incoming: Which log10 of IC50 value is on record for COc1ccccc1/C=C/c1csc(NC(=O)c2cccn2Cc2ccncc2)n1 ?
Outgoing: 0.00

###

Test system: PD1-ss+10aa/Gaussia Luciferase
experiment-notes: Dox-Induced PD1-ss-Gluc Assay
Assay type: cell-based
stated-conditions: 24 hr doxycycline induction, 293FRT/TO cells, Gaussia luciferase signal; read-out: 24 hr Dox Inducible PD1ssGluc 293FRT/TO: Mean IC50
Experimental: Transfected cells were selected for resistance to the selectable markers Hygromycin and Blasticidin to create a stable cell line that contained the PD1-ss+10aa/Gaussia Luciferase cDNA insert whose expression was regulated under the T-REx™ system. The day before assay, cells were trypsinized and plated in 384-well tissue culture plates. The next day, compound dilutions in DMSO/media containing doxycycline were added to the wells and incubated at 37° C., 5% CO2. […]
With a cut-off of 2000 nM, any IC50 strictly below it is called MET; any IC50 meeting it or above is called NOT MET.

Solved entries:
INSERT INTO measurements (molecule, class_assignment) VALUES
  ('CC(=O)Nc1ccc(Cn2cccc2C(=O)Nc2nc(C(C)(C)OC(C)C)cs2)cc1', 'NOT MET'),
  ('CC(C)OC(C)(C)c1csc(NC(=O)c2cccn2Cc2ccc(C#N)cc2)n1', 'NOT MET'),
  ('CC(C)OC(C)(C)c1csc(NC(=O)c2cccn2C(C)c2ccncc2)n1 (stereo not drawn)', 'MET'),
  ('CNC(=O)c1ccc(/C=C/c2csc(NC(=O)c3cccn3Cc3ccncc3)n2)cc1', 'MET'),
  ('Cc1cnc(NC(=O)c2cccn2Cc2ccncc2)s1', 'NOT MET');

Incoming: Decide: IC50 of CCN(C(=O)c1cccn1Cc1ccncc1)c1nc(C)cs1 strictly below 2000 nM?
Outgoing: NOT MET

Incoming: Decide: IC50 of O=C(Nc1nc2c(s1)COCC2)c1cccn1Cc1ccncc1 strictly below 2000 nM?
Outgoing: NOT MET

Incoming: Decide: IC50 of CN(C)c1ccc(/C=C/c2csc(NC(=O)c3cccn3Cc3ccncc3)n2)cc1 strictly below 2000 nM?
Outgoing: MET

Incoming: Decide: IC50 of CC(C)OC(C)(C)c1csc(NC(=O)c2cccn2CCCCc2ccncc2)n1 strictly below 2000 nM?
Outgoing: MET
